# experiment: growth of efflux-deficient E. coli DRC39 – strain DRC39, OD650, 24 h, E. coli filamentation inducers, primary screen (AID 1178);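 also: growth measured as culture turbidity by optical density at 650 nm; test concentration not given here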
# condition.context: E. coli DRC39 acrAB, higher = more signal, called active from +8 up or from −8 down
Provide the reported z-score of each item.
Form rule: numeric answer, no unit written next to it.

Reported z-score for `C=C(COC)C(=O)CC[C@H](OC(=O)c1cccnc1)c1ccc(OCCO)cc1` : what is it?
-0.768

Reported z-score for `Cc1ccc(F)cc1S(=O)(=O)N[C@H]1CCN(Cc2ccc(OC(C)C)cc2)C1` : what is it?
-1.42

Reported z-score for `COc1ccc(C(=O)Nc2cccc(CN3C(=O)[C@@]4(O[C@@H](CC(=O)N5CCC[C@H]5CO)[C@H]([Si](C)(C)c5ccc(OC)cc5)[C@H]4C)c4ccccc43)c2)cc1` : what is it?
0.603

Reported z-score for `O=C1O[C@@H](c2ccccc2)[C@@H](c2ccccc2)N2[C@@H](c3ccc(OCCO)cc3)[C@]3(C(=O)Nc4ccc(C#CC5(O)CCCCCC5)cc43)[C@@H](C(=O)Nc3nc4ccccc4s3)[C@H]12` : what is it?
-0.27

###

# System: Sonic hedgehog protein (Shh)
# experiment: Sonic hedgehog microarray binding compounds – biochemical, small-molecule microarray, 635/667 nm fluorescence, primary screen (AID 1151);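 also: Shh protein binding to compounds spotted on small-molecule microarray slides; score combines spot fluorescence intensity with signal-to-noise across triplicate slides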
# condition.context: 635 nm fluorescence, higher = more signal
Provide the reported composite z-score of each item.

Find the measured composite z-score: item C=CCC(OC(C)=O)[C@@H]1[C@@H](N(Cc2ccc(-c3ccccc3)cc2)C(=O)c2cccc3ccccc23)c2cc(OCCCO)ccc2N1C(=O)Cc1ccc(OC)cc1 (some centres undefined) , target or system Sonic hedgehog protein (Shh).
0.586

Find the measured composite z-score: item O=C1OCCC=C[C@H]2OC34C=CCN(c5ccc6ccccc6c5)C(=O)[C@H]3N(CCO)C(=O)[C@@H]4C12 (some centres undefined) , target or system Sonic hedgehog protein (Shh).
0.116

Find the measured composite z-score: item `CN(C)CCCNC(=O)[C@@]1(Cc2ccccc2I)c2ccccc2C(=O)N(C2CCCCC2)[C@H]1c1ccc(CO)cc1` , target or system Sonic hedgehog protein (Shh).
0.618

Find the measured composite z-score: item `COC(=O)[C@@]1(Cc2ccccc2)N=C(c2ccc(OCCCO)cc2)O[C@H]1c1ccccc1CN=[N+]=[N-]` , target or system Sonic hedgehog protein (Shh).
1.88

###

Provide the reported z-score of each item.
# experiment: growth of efflux-deficient E. coli DRC39 – strain DRC39, OD650, 48 h, E. coli filamentation inducers, primary screen (AID 1179);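 also: screen aims at cell division blockers that make cells filament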
# condition.context: E. coli DRC39 delta-acrAB growth, higher = more signal, called active from +8 up or from −8 down
Form rule: numeric answer, no unit written next to it.

Reported z-score for CC(C)C(CO)N1C(=O)[C@@H]2C3C(=O)OCCC/C=C\[C@H]3OC23C=CCN(Cc2ccccc2)C(=O)[C@@H]13 (stereo partly specified) : what is it?
0.755

Reported z-score for `CN(C)CCCCNC(=O)[C@H]1C[C@H]2C(=O)N3CCC[C@H]3C(=O)N2[C@H]1c1cccc(OCCO)c1` : what is it?
-0.536

Reported z-score for O=C1NC(=O)C2C1C=CC(C(O)c1ccc([N+](=O)[O-])cc1)N2Nc1ccccn1 (stereo unspecified) : what is it?
-0.372

Reported z-score for `COC(=O)[C@@]1(Cc2ccc(F)cc2)[C@H]2c3cc(C(=O)N(C)C)n(CCc4ccc(O)c(O)c4)c3C[C@H]2CN1C(=O)c1ccccc1` : what is it?
0.157

Reported z-score for `COc1ccc([Si](C)(C)[C@@H]2[C@@H](CC(=O)N3Cc4ccccc4C[C@H]3CO)O[C@]3(C(=O)N(Cc4ccc(N5CCOC5=O)cc4)c4ccccc43)[C@H]2C)cc1` : what is it?
0.465

Reported z-score for O=C1C2C=CC(C(O)c3c(F)cccc3Cl)N(Nc3ccc([N+](=O)[O-])cc3)C2C(=O)N1c1ccccc1 (stereo unspecified) : what is it?
-0.194

Reported z-score for `COC(=O)[C@@]1(Cc2ccc(OC)cc2)[C@H]2c3cc(C(=O)N(C)C)[nH]c3C[C@H]2CN1C(=O)c1ccccc1` : what is it?
0.192

Reported z-score for COC(=O)C1(Cc2ccccc2)C=C2C(=C(C)C(=O)C2C)CN1 (stereo unspecified) : what is it?
1.2

Reported z-score for `O=C(NCc1ccc(F)cc1)[C@H]1C[C@H]2C(=O)N3CCC[C@H]3C(=O)N2[C@H]1c1ccc(O)cc1` : what is it?
-0.545

Reported z-score for Cc1ccccc1C(O)C1C=CC2C(=O)N(c3ccccc3)C(=O)C2N1Nc1ccccc1 (stereo unspecified) : what is it?
0.372

Reported z-score for `CO[C@H]1O[C@H](CO)[C@@H](OC(=O)Nc2ccc3c(c2)OCO3)[C@H](OC(=O)Nc2ccccc2-c2ccccc2)[C@H]1OC(=O)Nc1ccccc1-c1ccccc1` : what is it?
-0.303

Reported z-score for `CC(C)c1nc2cc(Br)ccc2c(=O)o1` : what is it?
1.24

Reported z-score for `CN(C)CCCNC(=O)[C@@]1(Cc2ccccc2I)c2ccccc2C(=O)N(C2CCCCC2)[C@H]1c1ccc(CO)cc1` : what is it?
-0.707

Reported z-score for CCCCCC1=C2CNC(CC(C)C)(C(=O)OC)C=C2C(C)C1=O (stereo unspecified) : what is it?
0.501

Reported z-score for `C[N+](C)(C)CCCC[C@@H]1NC(=O)[C@H]2C[C@@H](C(=O)NCCCCCNC(=O)CS)[C@@H](c3cccc(OCCO)c3)N2C1=O` : what is it?
-0.779

Reported z-score for `C=C(COC)/C(=C/C[C@@H](OC(C)=O)c1ccccc1OCCO)c1cnc2ccccc2c1` : what is it?
-0.828

Reported z-score for `C=CCOC(=O)[C@@H]1[C@H]2C(=O)O[C@H](c3ccccc3)[C@H](c3ccccc3)N2[C@H](c2ccc(OCCOC(=O)[C@H]3C[C@H]4C(=O)N5CCC[C@H]5C(=O)N4[C@H]3c3cccc(OCCO)c3)cc2)[C@@]12C(=O)Nc1ccc(I)cc12` : what is it?
-0.365

Reported z-score for COc1ccc(C(O)C2C=CC3C(=O)NC(=O)C3N2Nc2ccc(Cl)cc2Cl)c2ccccc12 (stereo unspecified) : what is it?
-0.626

Reported z-score for NC(=O)N1C(=O)C2C(C1=O)C1C=C(CCCO)C2C(c2ccc(CN3CCCC3)cc2)N1Cc1cc2c(cc1Br)OCO2 (stereo unspecified) : what is it?
-0.299

Reported z-score for `NC(=O)NCC#Cc1ccc2c(c1)[C@]1(C(=O)N2)[C@H](c2ccc(OCCO)cc2)N2[C@H](c3ccccc3)[C@H](c3ccccc3)OC(=O)[C@H]2[C@@H]1C(=O)NC[C@H](O)c1ccccc1` : what is it?
0.107

Reported z-score for `COC(=O)C(CC#Cc1ccc2c(c1)[C@]1(C(=O)N2)[C@H](c2ccccc2OCCO)N2[C@H](c3ccccc3)[C@H](c3ccccc3)OC(=O)[C@H]2[C@@H]1C(=O)N1CCc2cc(OC)c(OC)cc2C1)C(=O)OC` : what is it?
0.761
